This section presents compounds with their documented IC50 values.
biological target: FLuc-C-HiBiT (Photinus pyralis); construct: firefly luciferase with C-terminal HiBiT tag, E. coli expressed; experiment: biochemical; details: enzyme activity, 10 uM ATP; read-out: IC50 or SDR50 (mM) / FLuc E
Sequence (P08659 whole entry, looked up): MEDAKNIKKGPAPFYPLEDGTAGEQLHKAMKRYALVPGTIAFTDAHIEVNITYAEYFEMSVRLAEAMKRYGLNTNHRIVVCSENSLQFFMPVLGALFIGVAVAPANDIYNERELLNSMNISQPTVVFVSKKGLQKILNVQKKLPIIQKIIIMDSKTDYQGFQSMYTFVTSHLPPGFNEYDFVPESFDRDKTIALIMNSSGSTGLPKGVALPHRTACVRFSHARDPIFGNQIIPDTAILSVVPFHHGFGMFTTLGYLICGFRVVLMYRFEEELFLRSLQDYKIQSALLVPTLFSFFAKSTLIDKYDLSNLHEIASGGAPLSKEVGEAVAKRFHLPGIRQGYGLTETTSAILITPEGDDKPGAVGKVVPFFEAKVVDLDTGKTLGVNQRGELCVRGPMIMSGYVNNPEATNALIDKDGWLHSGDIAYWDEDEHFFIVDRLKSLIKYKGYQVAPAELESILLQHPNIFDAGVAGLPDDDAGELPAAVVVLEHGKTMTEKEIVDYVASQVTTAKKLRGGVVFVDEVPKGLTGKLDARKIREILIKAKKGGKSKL

{"compound": "CC1CCC(NC(=O)C2CCN(C(=O)c3ncn4c3COC(c3ccccc3)C4)CC2)CC1 (stereo not shown)", "IC50 / µM": 2.48}
{"compound": "COc1ccc2cc(C3CN(C(=O)c4cccc(CO)c4)CCO3)ccc2c1 (stereo not shown)", "IC50 / µM": 2.48}
{"compound": "CC(C)(Oc1ccc(-c2nc3cc(Cl)ccc3s2)cc1)C(=O)O", "IC50 / µM": 8.81}
{"compound": "O=C(O)c1cccc(-c2noc(-c3ccc(C(F)(F)F)cc3)n2)c1", "IC50 / µM": 0.00351}

###

molecular target: ABL1-N-HiBiT kinase domain (Homo sapiens, UniProt P00519); test: SDR assay, ABL1-N-HiBiT; settings: ABL1-N-HiBiT qHTS; average maximal SDR response
Sequence (P00519 233-500): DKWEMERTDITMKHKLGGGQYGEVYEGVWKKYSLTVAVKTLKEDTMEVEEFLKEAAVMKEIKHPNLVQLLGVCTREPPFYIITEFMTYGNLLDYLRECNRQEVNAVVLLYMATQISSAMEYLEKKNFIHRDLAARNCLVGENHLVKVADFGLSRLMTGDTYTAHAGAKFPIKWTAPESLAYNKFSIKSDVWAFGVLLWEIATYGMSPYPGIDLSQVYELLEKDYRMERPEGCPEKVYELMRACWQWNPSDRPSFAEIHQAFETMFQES

{"structure-smiles": "C[C@@H]1CN(CC(=O)Nc2ccc3c(c2)Cc2cccc(-c4cc(=O)cc(N5CCOCC5)o4)c2S3)C[C@H](C)O1", "target-entity": "ABL1-N-HiBiT kinase domain (Homo sapiens, UniProt P00519)", "SDR Ave Max Response": -23.55}
{"structure-smiles": "N#Cc1cccc(-c2c[nH]c3ncnc(N4CCOCC4)c23)c1", "target-entity": "ABL1-N-HiBiT kinase domain (Homo sapiens, UniProt P00519)", "SDR Ave Max Response": 52.23}
{"structure-smiles": "COC(=O)Nc1ccc(-c2nc(N3CCOCC3)c3cnn(C4CCN(C(=O)OC)CC4)c3n2)cc1", "target-entity": "ABL1-N-HiBiT kinase domain (Homo sapiens, UniProt P00519)", "SDR Ave Max Response": 1.70}
{"structure-smiles": "O=c1c(O)c(-c2ccc(O)c(O)c2)oc2cc(O)cc(O)c12", "target-entity": "ABL1-N-HiBiT kinase domain (Homo sapiens, UniProt P00519)", "SDR Ave Max Response": 48.80}
{"structure-smiles": "COc1cc(NC(=O)c2cccc(-n3cc(NC(=O)Nc4cccc(C)c4)cn3)c2)cc(OC)c1OC", "target-entity": "ABL1-N-HiBiT kinase domain (Homo sapiens, UniProt P00519)", "SDR Ave Max Response": 6.18}
{"structure-smiles": "C[C@@H](NC(=O)c1ncnc(N)c1Cl)c1ncc(C(=O)Nc2cc(C(F)(F)F)c(Cl)cn2)s1", "target-entity": "ABL1-N-HiBiT kinase domain (Homo sapiens, UniProt P00519)", "SDR Ave Max Response": 75.61}
{"structure-smiles": "COc1ccc2c(Oc3ccc(NC(=O)c4c(C)n(CC(C)(C)O)n(-c5ccccc5)c4=O)nc3)ccnc2c1", "target-entity": "ABL1-N-HiBiT kinase domain (Homo sapiens, UniProt P00519)", "SDR Ave Max Response": 38.29}
{"structure-smiles": "Cn1c(=O)c2c(ncn2C)n(C)c1=O", "target-entity": "ABL1-N-HiBiT kinase domain (Homo sapiens, UniProt P00519)", "SDR Ave Max Response": 3.59}

Data credit: paper PMC12064818
